- target.of.assay: T1, HU-RAGE-SA (human, UniProt Q15109 23-342)
- T1 construct: extracellular domain; Directly immobilized on a CM5 chip (~100 RU); also called hRAGE-SA; soluble human streptavidin-tagged RAGE; not shown: streptavidin tag (SA)
- protocol.details: BIAcore, 10 nM scFv-Fc over directly immobilized HU-RAGE-SA, 1:1 fit
Kindly apply the following: Criterion met if koff is less than 0.0009 s⁻¹, Criterion not met in every other case.

Worked examples follow.
binder	class.label
10D8 scFv-Fc fusion (Fc fusion, also called 10D8 (b); not shown: wild-type human IgG Fc (hinge and constant domains)) DIQMTQSPSSLSASVGDKVTITCRASQDVGFYVNWFQQKPGKAPRRLIYRATNLADGVPSRFSGSRSGTDFTLTISSLQPEDFATYYCLEFDEHPLTFGGGTKVEIKDGGGSGNGGSGGGGSSEVQLVESGGELVQPGGSLRLSCAASGFTFNNYWMTWVRQAPGKGLEWVASIDNSGDNTYYPDSVKDRFTISRDNAKNSLYLQMNSLRAEDTAVYYCARGGDITTGFDYWGQGTLVTVSS	Criterion met
3A6 scFv-Fc fusion (Fc fusion, not shown: wild-type human IgG Fc (hinge and constant domains)) DIQMTQSPSSLSASVGDRVTITCRASQDVGIYVNWFQQKPGKAPRRLIYRATNLADGVPSRFSGSRSGTDFTLTISSLQPEDFATYYCLEFDEHPLTFGGGTKVEIKDGGGSGGGGSGGGGSSEVQLVESGGGLVQPGGSLRLSCAASGFTFNNYWMTWVRQAPGKGLEWVASIDNSGDNTYYPDSVKDRFTISRDNAKNSLYLQMNSLRAEDTAVYYCARGGDILVSLDVWGQGTLVTVSS	Criterion met
3G5 scFv-Fc fusion (Fc fusion, Substitutions derived from the printed HCDR3; not shown: wild-type human IgG Fc (hinge and constant domains)) DIQMTQSPSSLSASVGDRVTITCRASQDVGIYVNWFQQKPGKAPRRLIYRATNLADGVPSRFSGSRSGTDFTLTISSLQPEDFATYYCLEFDEHPLTFGGGTKVEIKDGGGSGGGGSGGGGSSEVQLVESGGGLVQPGGSLRLSCAASGFTFNNYWMTWVRQAPGKGLEWVASIDNSGDNTYYPDSVKDRFTISRDNAKNSLYLQMNSLRAEDTAVYYCARGGDILDSLPYWGQGTLVTVSS	Criterion met

Is it true that koff reported for 6B2 scFv-Fc fusion (Fc fusion, Substitutions derived from the printed HCDR3; not shown: wild-type human IgG Fc (hinge and constant domains)) DIQMTQSPSSLSASVGDRVTITCRASQDVGIYVNWFQQKPGKAPRRLIYRATNLADGVPSRFSGSRSGTDFTLTISSLQPEDFATYYCLEFDEHPLTFGGGTKVEIKDGGGSGGGGSGGGGSSEVQLVESGGGLVQPGGSLRLSCAASGFTFNNYWMTWVRQAPGKGLEWVASIDNSGDNTYYPDSVKDRFTISRDNAKNSLYLQMNSLRAEDTAVYYCARGGDIRVGLDVWGQGTLVTVSS is less than 0.0009 s⁻¹? Criterion met

State whether 0.0009 s⁻¹ exceeds koff recorded for 8G9 scFv-Fc fusion (Fc fusion, not shown: wild-type human IgG Fc (hinge and constant domains)) DIQMTQSPSSLSASVGDRVTITCRASQDVGIYVNWFQQKPGKAPRRLIYRATNLADGVPSRFSGSRSGTDFTLTISSLQPEDFATYYCLEFDEHPLTFGGGTKVEIKDGGGSGGGGSGGGGSSEVQLVESGGGLVQPGSSLRLSCAASGFTFNNYWMTWVRQAPGKGLEWVASIDNSGDNTYYPDSVKDRFTISRDNAKNSLYLQMNSLRAEDTAVYYCARGGDITTGLDYWGQGTLVTVSS . Criterion not met
